Please respond with reported pKa for every item in the list.
Test: Estimate of pKa by potentiometric titration
Assay type: physicochemical
Settings: water; conjugate acid, estimated by titration of the entire compound

In: Given the entry `c1ccc(-c2cccnn2)nc1` , report its measured pKa.
Out: < 3

In: Endpoint output: pKa of `c1ccc(-c2ncco2)nc1` . Value?
Out: < 3

In: Consider the compound c1ccc(-c2cc[nH]n2)nc1 [pypyr, 2-(1H-pyrazol-3-yl)pyridine, reference compound] and give its measured pKa.
Out: 4.1

In: What does the data say about its pKa? Entry: `c1ccc(-c2nccs2)nc1`
Out: < 3

In: Reported pKa, compound c1ccc(-c2ncc[nH]2)nc1 [pyim, 2-(1H-Imidazol-2-yl)pyridine, reference compound] : ____
Out: 5.4

In: Dear colleague, I am looking for the recorded pKa of the following compound: `c1ccc(-c2cnccn2)nc1`
Out: < 3
